Origin of the recorded values: ChEMBL document CHEMBL3098017

Molecular target: Cytochrome P450 11B1, mitochondrial (Rattus norvegicus, UniProt P15393)
Sequence (P15393 whole entry): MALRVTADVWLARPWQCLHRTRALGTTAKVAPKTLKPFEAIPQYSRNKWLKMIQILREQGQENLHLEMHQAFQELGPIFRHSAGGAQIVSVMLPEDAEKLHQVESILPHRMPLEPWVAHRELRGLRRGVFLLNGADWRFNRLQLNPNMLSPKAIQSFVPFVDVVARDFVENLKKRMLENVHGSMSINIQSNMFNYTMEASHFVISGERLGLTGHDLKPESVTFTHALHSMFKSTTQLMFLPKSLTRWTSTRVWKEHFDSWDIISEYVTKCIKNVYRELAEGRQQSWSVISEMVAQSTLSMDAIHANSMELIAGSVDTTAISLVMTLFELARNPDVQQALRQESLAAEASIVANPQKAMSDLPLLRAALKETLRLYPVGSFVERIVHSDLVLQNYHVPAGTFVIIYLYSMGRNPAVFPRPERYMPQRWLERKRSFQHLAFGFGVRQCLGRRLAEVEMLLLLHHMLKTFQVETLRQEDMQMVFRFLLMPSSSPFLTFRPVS
Assay: Inhibition of rat recombinant CYP11B1 using 11-deoxycortisol as substrate by cell-based assay
value_kind: IC50 (nM)
Report as a plain number; the unit nM is understood.

Find the recorded IC50 belonging to N#Cc1ccc([C@H]2CCCCc3cncn32)c(-c2ccc(F)cc2)c1 and report it. 0.3

Entry to check: Cc1cc(C#N)ccc1[C@H]1CCc2cncn21 386

----------
Biological target: Cytochrome P450 11B2, mitochondrial (Homo sapiens, UniProt P19099)
Sequence (P19099 whole entry): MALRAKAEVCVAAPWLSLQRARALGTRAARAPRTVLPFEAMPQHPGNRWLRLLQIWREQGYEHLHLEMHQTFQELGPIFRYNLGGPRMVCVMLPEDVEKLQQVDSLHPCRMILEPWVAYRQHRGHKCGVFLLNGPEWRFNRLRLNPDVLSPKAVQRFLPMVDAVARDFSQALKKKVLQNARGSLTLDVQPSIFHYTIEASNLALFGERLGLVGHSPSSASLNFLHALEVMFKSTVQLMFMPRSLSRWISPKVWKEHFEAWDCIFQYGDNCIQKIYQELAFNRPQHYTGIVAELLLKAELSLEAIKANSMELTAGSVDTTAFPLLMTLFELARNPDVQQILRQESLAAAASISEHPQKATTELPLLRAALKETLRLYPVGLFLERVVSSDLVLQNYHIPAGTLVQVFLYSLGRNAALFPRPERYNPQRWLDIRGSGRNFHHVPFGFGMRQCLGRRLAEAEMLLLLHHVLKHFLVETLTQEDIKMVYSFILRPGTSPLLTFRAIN
Experiment: Inhibition of human recombinant CYP11B2 using 11-deoxycorticosterone as substrate by cell-based assay
value_kind: IC50
Please answer using a numeric value trailed by its unit.

Previously resolved entries follow.
N#Cc1ccc([C@H]2CCCCc3cncn32)c(F)c1
3.2 nM
Cc1cc(C#N)ccc1[C@H]1CCc2cncn21
0.9 nM
N#Cc1ccc([C@H]2CCCCc3cncn32)c(-c2ccc(F)cc2)c1
0.4 nM

Return IC50 measured with Cytochrome P450 11B2, mitochondrial (Homo sapiens, UniProt P19099) given this compound: N#Cc1ccc([C@@]2(C(=O)OCc3ccc(F)cc3)CCc3cncn32)c(Cl)c1 3.8 nM

----------
Quick reference for Cave among some compounds
Tested on: Rattus norvegicus
Experiment: Time-weighted average (0 to 8 hrs) in Sprague-Dawley rat at 1 mg/kg, po
Assay type: ADME, organism-based
Parameters: dose 1 mg/kg, route oral
Conditions: in vivo
Report as a plain number; the unit nM is understood.

Previously resolved entries follow.
COC(=O)[C@]1(c2ccc(C#N)cc2Cl)CCc2cncn21
6
Fc1ccc(-c2ccccc2[C@H]2CCCCc3cncn32)cc1
152
N#Cc1ccc([C@H]2CCc3cncn32)c(Cl)c1
152
COc1cc(C#N)ccc1[C@@]1(C(=O)N(C)Cc2ccc(F)cc2)CCc2cncn21
15
c1ccc(-c2ccccc2[C@H]2CCCCc3cncn32)cc1
4
N#Cc1ccc([C@H]2CCCCc3cncn32)c(-c2ccc(F)cc2)c1
6
N#Cc1ccc([C@H]2CCc3cncn32)c(F)c1
377

# next compound below
Find the recorded Cave belonging to COc1cc(C#N)ccc1[C@H]1CCc2cncn21 and report it. 33

----------
Biological target: Cytochrome P450 11B2, mitochondrial (Homo sapiens)
Assay: Inhibition of CYP11B2 in human NCI-H295R cells assessed as inhibition of angiotensin-2-induced aldosterone production after 24 hrs by RIA
Type: cell-based
pIC50: −log10 of the molar value.
Label rule, in plain words: pIC50 of 8 and up is 1, under 8 is 0.

See these solved cases before continuing.
COc1cc(C#N)ccc1[C@H]1CCc2cncn21
1
COc1cc(C#N)ccc1[C@@]1(C(=O)N(C)Cc2ccc(F)cc2)CCc2cncn21
1
N#Cc1ccc([C@H]2CCCc3cncn32)c(F)c1
0

Kindly consider the entry below.
pIC50 >= 8 for N#Cc1ccc(C2CCCc3cncn32)c(Cl)c1 (racemic) ? 0
